# System: a variety of test species
# ASSAY_OVERVIEW: Post-emergence herbicidal activity (Example 8b, Table 3)
# Type: in vivo
# SETTINGS: Zea mays; application post-emergence; rate 1000 g/ha; evaluated after 13 days; scale 0-5
Simple rule here: Herbicidal damage score, ZEAMX less than 3 is yes (1), otherwise no (0).

Example cases with answers are listed next.
1. CC1=C(Cl)C(=O)N(c2cc(C#N)n(CC(F)(F)F)n2)C1O (stereo not shown): yes (1)
2. CC1=C(Cl)C(=O)N(c2cc(I)n(C)n2)C1O (stereo not shown) [Compound B16]: no (0)
3. CC1=C(Cl)C(=O)N(c2cc(C#CC(C)(C)C)n(C)n2)C1O (stereo not shown): yes (1)
4. CC1=C(Br)C(=O)N(c2cc3n(n2)CCS(=O)(=O)C3(C)C)C1O (stereo not shown): yes (1)
5. COC1=C(Br)C(=O)N(c2nn(C)c(C(C)(C)C)c2Br)C1O (stereo not shown): yes (1)

Now let's try a different one.
Determine whether this compound shows Herbicidal damage score, ZEAMX lower than 3 (ties excluded): CC1=C(Cl)C(=O)N(c2cc(Cl)n(C)n2)C1O (stereo not shown) [Compound B9] no (0)

----------
# Pre-emergence herbicidal activity, damage score SETFA listing for each entry below
# System: a variety of test species
# ASSAY_OVERVIEW: Pre-emergence herbicidal activity (Example 8a, Table 2)
# Type: in vivo
# Set-up: key: 0 = no damage to plant, 5 = total damage to plant
# SETTINGS: SETFA; application pre-emergence; rate 1000 g/ha; evaluated after 13 days
Please reply with the number alone, leaving off any unit.

Solved cases (5 shown):
1) CC1=C(Cl)C(=O)N(c2cc(C(F)C(C)(C)C)n(C)n2)C1O (mixture of isomers): 4
2) CC1=C(Cl)C(=O)N(c2nn(C)c(C(C)(C)C)c2C#N)C1O (centres unmarked) [Compound D1]: 4
3) C/C=C\c1cc(N2C(=O)C(Cl)=C(C)C2O)nn1C (centres unmarked): 4
4) CC1=C(Cl)C(=O)N(c2cc3n(n2)CCC3C)C1O (mixture of isomers) [Compound G1]: 4
5) CC1=C(Cl)C(=O)N(c2cc(C(C)(C)C)n(C)n2)C1OC(=O)Oc1ccccc1 (centres unmarked) [Compound F2]: 4

Tested on a variety of test species, the item CC1=C(Br)C(=O)N(c2cc(C(C)(C)C)[nH]n2)C1O (centres unmarked) showed Pre-emergence herbicidal activity, damage score SETFA equal to 4

----------
# Tested on: a variety of test species
# ASSAY_OVERVIEW: Pre-emergence herbicidal activity (Example 8a, Table 2)
# Type: in vivo
# Design: key: 0 = no damage to plant, 5 = total damage to plant
# SETTINGS: SETFA; application pre-emergence; rate 1000 g/ha; evaluated after 13 days
# Procedure: Seeds of a variety of test species were sown in standard soil in pots. […] After 13 days, the test was evaluated (5=total damage to plant; 0=no damage to plant).
PROPERTY_MEASURED: Pre-emergence herbicidal activity, damage score SETFA
Please reply with the number alone, leaving off any unit.

Solved cases (6 shown):
1. CC1=C(Br)C(=O)N(c2nn(C)c(C(C)(C)C)c2C#N)C1O (centres unmarked) [Compound L1]: 5
2. COC1=C(OC)C(O)N(c2cc(C(F)(F)F)n(C)n2)C1=O (centres unmarked) [Compound T2]: 5
3. CC1=C(Cl)C(=O)N(c2cc(C(C)(C)C)n(C)n2)C1OC(=O)Oc1ccccc1 (centres unmarked) [Compound F3]: 4
4. CC1=C(Cl)C(=O)N(c2cc(C(C)C)[nH]n2)C1O (centres unmarked) [Compound A3]: 5
5. CC(C)=CCc1cc(N2C(=O)C(Br)=C(C)C2O)nn1C (centres unmarked) [Compound J3]: 0
6. COC1=C(C)C(O)N(c2cc(C(F)(F)F)n(C)n2)C1=O (centres unmarked) [Compound H4]: 5

Kindly note the recorded Pre-emergence herbicidal activity, damage score SETFA for C=C(C)c1cc(N2C(=O)C(Cl)=C(C)C2O)nn1C (centres unmarked) [Compound B45] , which is 5

Kindly note the recorded Pre-emergence herbicidal activity, damage score SETFA for CCC(C)c1cc(N2C(=O)C(Cl)=C(C)C2O)nn1C (centres unmarked) [Compound B33] , which is 5

Kindly note the recorded Pre-emergence herbicidal activity, damage score SETFA for CC1=C(Cl)C(=O)N(c2cc(C(F)(F)F)n(C(C)C)n2)C1O (centres unmarked) [Compound C4] , which is 4

Values were extracted from patent US9605004B2.
